ASSAY REMARKS: Cmax in patient plasma at 600 mg, iv or 600 mg, po administered every 12 hrs by HPLC
Format: ADME, organism-based
CONDITION NOTES: human
QUANTITY: Cmax (ng/mL)

| CHEMICAL SMILES | QUANTITATIVE READOUT |
| --- | --- |
| CC(=O)NC[C@H]1CN(c2ccc(N3CCOCC3)c(F)c2)C(=O)O1 | 14700 |

* * *

ASSAY REMARKS: Drug excretion in healthy human urine assessed as unchanged compound at 600 mg, po
Assay type: ADME, tissue-based
CONDITION NOTES: read-out: Activity
QUANTITY: dose excreted (%)

| MOLECULE | QUANTITATIVE READOUT |
| --- | --- |
| CC(=O)NC[C@H]1CN(c2ccc(N3CCOCC3)c(F)c2)C(=O)O1 [LINEZOLID] | 30 |

* * *

ASSAY REMARKS: AUC (24 hrs) in patient plasma at 600 mg, iv or 600 mg, po administered every 12 hrs by HPLC
Type: ADME, organism-based
CONDITION NOTES: human

| CHEMICAL SMILES | UNIT ABBREV | AUC |
| --- | --- | --- |
| CC(=O)NC[C@H]1CN(c2ccc(N3CCOCC3)c(F)c2)C(=O)O1 | µg·h/mL | 196 |

Values from ChEMBL document CHEMBL1671753
